Data provenance is paper PMC12811658.

biological target: IDO1 protein levels in BxPC3 cells (Homo sapiens, UniProt P14902); assay: IDO1 immunoblotting (degradation); type: cell-based; set-up: endogenous in cells; host or cells: BxPC3 (DSMZ), IFN-γ stimulated; settings: 10 nM, 24 h incubation; mean ± SD
Sequence (P14902 whole entry): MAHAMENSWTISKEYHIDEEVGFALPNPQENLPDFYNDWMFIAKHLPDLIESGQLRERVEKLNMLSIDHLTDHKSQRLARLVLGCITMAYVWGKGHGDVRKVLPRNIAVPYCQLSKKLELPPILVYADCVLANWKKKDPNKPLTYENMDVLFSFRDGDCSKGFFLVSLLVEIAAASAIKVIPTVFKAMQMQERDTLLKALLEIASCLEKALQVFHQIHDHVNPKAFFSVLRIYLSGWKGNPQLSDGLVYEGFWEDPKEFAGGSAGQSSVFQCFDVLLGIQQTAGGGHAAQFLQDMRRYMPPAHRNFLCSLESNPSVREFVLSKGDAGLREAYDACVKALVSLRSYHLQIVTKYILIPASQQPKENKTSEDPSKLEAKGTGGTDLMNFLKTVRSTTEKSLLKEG
For each entry below, report its Max. degradation (%) value.

Answered cases to consult:
{"line.notation": "C#Cc1ccc(NC(=O)OC[C@]23CN(S(=O)(=O)c4ccc(C(C)(C)C)cc4C)C[C@H]2C[C@H]2C[C@@H]3C2(C)C)cc1", "Max. degradation (%)": "61 ± 12 (5) %"}
{"line.notation": "Cc1cc(C(C)(C)C)ccc1S(=O)(=O)N1C[C@H]2C[C@H]3C[C@H](C3(C)C)[C@@]2(COC(=O)Nc2ccc(I)cc2)C1", "Max. degradation (%)": "31 ± 6 (3) %"}

# input for lookup
## Task Given the compound CC(C)(C)c1ccc(S(=O)(=O)N2C[C@H]3C[C@H]4C[C@H](C4(C)C)[C@@]3(COC(=O)Nc3ccc(I)cc3)C2)cc1 , what is its reported Max. degradation (%)?
## Result 20 ± 9 (3) %
